Test: Apparent permeability of the compound across apical to basolateral side in human Caco-2 cells at 30 uM incubated for 60 mins by LC analysis
Format: ADME, cell-based
measured attribute: Papp A→B at 1 h, 30 µM (×10⁻⁶ cm/s)
One number for each entry, in ×10⁻⁶ cm/s.

Quick note, Papp A→B at 1 h, 30 µM for O=C1/C(=C/c2cn(CCN3CCCCC3)c3ccccc23)Oc2cc(OCCN3CCCCC3)ccc21 landed at 25.3
